- Test system: Aβ43
- protocolDetails: Aβ43 in FAD1 iPS cell-derived nerve cells (secondary screening)
- Format: cell-based, human
- Protocol: To further study reproducibility of the candidate drugs obtained by the primary screening, secondary screening was conducted. In addition to Aβ40, Aβ42, Aβ42/40 ratio, Aβ38, Aβ43, sAPPα, sAPPβ were also studied and each numerical value was obtained.
Could you please report measured Aβ43 for the items listed next?
Numbers only.

CC(C)c1cccc(C(C)C)c1O [compound 87, PROPOFOL] :: 0.88
CCN(CC)CCNC(C(=O)OCCC(C)C)c1ccccc1 (stereo not drawn) [compound 33, CAMYLOFINE] :: 0.88

// next item, Aβ43 requested
Problem: I'm curious: which Aβ43 was measured for COc1cc(NC(C)CCCN)c2ncccc2c1 (stereo not drawn) [compound 77, PRIMAQUINE] tested on Aβ43?
Solution: 0.89

----------
- Test system: Aβ43
- protocolDetails: Aβ43 in FAD1 iPS cell-derived nerve cells (secondary screening)
- Assay type: cell-based, human
- Parameters: scale not given here
metric: Aβ43

# annotated cases, reported Aβ43 shown
CCC[C@H](N[C@@H](C)C(=O)N1[C@H](C(=O)O)C[C@@H]2CCCC[C@@H]21)C(=O)OCC [compound 64, PERINDOPRIL ERBUMINE] :: 0.91
C=C[C@H]1CN2CC[C@H]1C[C@H]2[C@H](OC(=O)OCC)c1ccnc2ccc(OC)cc12 [compound 41, QUININE ETHYL CARBONATE] :: 0.88
Nc1nc(=S)c2[nH]cnc2[nH]1 [compound 122, THIOGUANINE] :: 0.92
c1ccc(-c2ccc(C(c3ccccc3)n3ccnc3)cc2)cc1 (stereo not drawn) [compound 27, BIFONAZOLE] :: 0.99
C[C@H](CCC(=O)O)[C@H]1CC[C@H]2[C@@H]3C(=O)C[C@@H]4CC(=O)CC[C@]4(C)[C@H]3CC(=O)[C@]12C [compound 103, DEHYDROCHOLIC ACID] :: 1.01

Problem: Any idea what its Aβ43 is? The compound is CCOC(=O)c1ccc(N)cc1 [compound 51, BENZOCAINE]
Solution: 0.99

----------
- Test system: Aβ43
- protocolDetails: Aβ43 in FAD1 iPS cell-derived nerve cells (secondary screening)
- Assay type: cell-based, human
- Design: scale not given here
metric: Aβ43
Answers are plain numbers.

CC1(C)C2CC[C@@]1(C)C(=O)C2 :: 0.91
C=CC1=C(C(=O)O)N2C(=O)[C@@H](NC(=O)/C(=N\O)c3csc(N)n3)[C@H]2SC1 :: 0.9
C=CCSCC1Nc2cc(Cl)c(S(N)(=O)=O)cc2S(=O)(=O)N1 (stereo not shown) [compound 117, ALTHIAZIDE] :: 0.91

// next item, Aβ43 requested
Problem: Any idea what its Aβ43 is? The compound is CSc1ccc2c(c1)C(N1CCN(C)CC1)Cc1ccccc1S2 (stereo not shown) [compound 31, METITEPINE]
Solution: 0.88

----------
- Tested on: Aβ43
- protocolDetails: Aβ43 in FAD1 iPS cell-derived nerve cells (secondary screening)
- Type: cell-based, human
- Set-up: scale not given here
Could you please report measured Aβ43 for the items listed next?
One number for each entry.

# annotated cases, reported Aβ43 shown
CCCCCCCCCCCCCCCCCCCCCCO :: 0.83
CC1=NS(=O)(=O)c2cc(Cl)ccc2N1 [compound 125, DIAZOXIDE] :: 0.9
NCC(=O)CCC(=O)O :: 1.16

// next item, Aβ43 requested
Problem: Any idea what its Aβ43 is? The compound is O=C(NC(Cc1cc(=O)[nH]c2ccccc12)C(=O)O)c1ccc(Cl)cc1 (stereo not shown) [compound 71, REBAMIPIDE]
Solution: 0.78
